Test system: HCV genotype 1b (Con1) replicon in HUH-7 cells
Experiment: HCV replicon luciferase reporter assay, genotype 1b
Format: cell-based
Conditions: Hepatitis C virus, Huh-7, 72 h, HCV genotype 1b replicon luciferase, 3 days incubation, read-out: LE_1b (EC50, range)
Listing of recorded EC50 by entry.

INSERT INTO measurements (compound_string, measure_name, reported) VALUES
  ('COc1ccc2c(O[C@@H]3C[C@H]4C(=O)N[C@]5(C(=O)NS(=O)(=O)C6CC6)C[C@H]5/C=C\CC[C@H](C)C[C@@H](C)[C@H](NC(=O)NC(C)(C)C)C(=O)N4C3)nc(-c3ccc(OC(C)C)cn3)cc2c1', 'EC50', '< 5.46 nM');

Consider the record given below.
Qu. Which value of EC50 has been reported for CCn1nc(O[C@@H]2C[C@H]3C(=O)N[C@]4(C(=O)NS(=O)(=O)C5(C)CC5)C[C@H]4/C=C\CC[C@@H](C)C[C@@H](C)[C@H](NC(=O)NC(C)(C)C)C(=O)N3C2)c2ccccc2c1=O in the records?
Ans. 4.82 to 103 nM

---

Test system: HCV genotype 1b (Con1) replicon in HUH-7 cells
Test: HCV replicon luciferase reporter assay, genotype 1b
Type: cell-based
Details: Hepatitis C virus, Huh-7, 72 h, HCV genotype 1b replicon luciferase, 3 days incubation, read-out: LE_1b (EC50, range)
Listing of recorded EC50 by entry.

INSERT INTO assay_data (compound_string, assayed_system, reported) VALUES
  ('CC[C@@H]1C[C@H](C)CC/C=C\[C@@H]2C[C@@]2(C(=O)NS(=O)(=O)C2(C)CC2)NC(=O)[C@@H]2C[C@@H](Oc3ncc(OC)c4cc(OC)ccc34)CN2C(=O)[C@H]1NC(=O)OC(C)(C)C', 'HCV genotype 1b (Con1) replicon in HUH-7 cells', '< 5.46 nM'),
  ('C[C@@H]1CC/C=C\[C@@H]2C[C@@]2(C(=O)NS(=O)(=O)C2(C)CC2)NC(=O)[C@@H]2C[C@@H](Oc3nc4c(c5ccccc35)CCCO4)CN2C(=O)[C@@H](NC(=O)OC(C)(C)C(F)(F)F)[C@H](C)C1', 'HCV genotype 1b (Con1) replicon in HUH-7 cells', '0.51 to 1 nM'),
  ('C[C@@H]1CC/C=C\[C@@H]2C[C@@]2(C(=O)NS(=O)(=O)C2(CF)CC2)NC(=O)[C@@H]2C[C@@H](Oc3nc4c(c5ccccc35)OCCC4)CN2C(=O)[C@@H](NC(=O)OC(C)(C)C)[C@H](C)C1', 'HCV genotype 1b (Con1) replicon in HUH-7 cells', '< 5.46 nM');

Consider the record given below.
Qu. Which value of EC50 has been reported for CC[C@@H]1C[C@H](C)CC/C=C\[C@@H]2C[C@@]2(C(=O)NS(=O)(=O)C2(CF)CC2)NC(=O)[C@@H]2C[C@@H](Oc3ncc(N4CCOCC4)c4ccccc34)CN2C(=O)[C@H]1NC(=O)OC(C)(C)C in the records?
Ans. 1.01 to 5 nM

---

Listing of recorded pEC50 by entry.
System: HCV genotype 1b (Con1) replicon in HUH-7 cells
Test: HCV replicon luciferase reporter assay, genotype 1b
Type: cell-based
Settings: Hepatitis C virus, Huh-7, 72 h, HCV genotype 1b replicon luciferase, 3 days incubation, read-out: LE_1b (EC50, range)
pEC50: −log10 of the molar value.

Please review the entries below; each comes with its answer.
INSERT INTO results (compound_string, reported) VALUES
  ('[2H]C([2H])([2H])C(C)(OC(=O)N[C@@H]1C(=O)N2C[C@H](Oc3nccc4c5c(ccc34)N(C)CCO5)C[C@H]2C(=O)N[C@]2(C(=O)NS(=O)(=O)C3CC3)C[C@H]2/C=C\CC[C@H](C)C[C@H]1C)C([2H])([2H])[2H]', '> 8.26'),
  ('CC[C@@H]1C[C@H](C)CC/C=C\[C@@H]2C[C@@]2(C(=O)NS(=O)(=O)C2(C)CC2)NC(=O)[C@@H]2C[C@@H](Oc3nc4c(c5ccccc35)CCCO4)CN2C(=O)[C@H]1NC(=O)OC(C)(C)C(C)(F)F', '9.30 to 10.00'),
  ('COc1ccc2c(O[C@@H]3C[C@H]4C(=O)N[C@]5(C(=O)NS(=O)(=O)C6(C)CC6)C[C@H]5/C=C\CC[C@@H](C)C[C@@H](C)[C@H](NC(=O)O[C@H](C)C(F)(F)F)C(=O)N4C3)nc(-c3ccc(OC(C)C)cc3)c(OC)c2c1', '> 8.26');

Consider the record given below.
Qu. Which value of pEC50 has been reported for CC[C@@H]1C[C@H](C)CC/C=C\[C@@H]2C[C@@]2(C(=O)NS(=O)(=O)C2(C)CC2)NC(=O)[C@@H]2C[C@@H](Oc3nc(OC)cc4cc(F)ccc34)CN2C(=O)[C@H]1NC(=O)OC(C)(C)C in the records?
Ans. 9.30 to 10.00

---

Tested on: HCV genotype 1b (Con1) replicon in HUH-7 cells
Assay: HCV replicon luciferase reporter assay, genotype 1b
Assay type: cell-based
Conditions: Hepatitis C virus, Huh-7, 72 h, HCV genotype 1b replicon luciferase, 3 days incubation, read-out: LE_1b (EC50, range)
measure name: EC50

INSERT INTO assay_data (compound_string, assayed_system, measure_name, reported) VALUES
  ('CCOc1ccc2c(O[C@@H]3C[C@H]4C(=O)N[C@]5(C(=O)NS(=O)(=O)C6(C)CC6)C[C@H]5/C=C\CC[C@@H](C)C[C@@H](C)[C@H](NC(=O)O[C@H](C)C(F)(F)F)C(=O)N4C3)nccc2c1', 'HCV genotype 1b (Con1) replicon in HUH-7 cells', 'EC50', '< 5.46 nM');

Qu. Recall the recorded EC50 for COc1ccc2c(O[C@@H]3C[C@H]4C(=O)N[C@]5(C(=O)NS(=O)(=O)C6CC6)C[C@H]5/C=C\CC[C@H](C)C[C@@H](C)[C@H](NC(=O)OC(C)(C)C(C)(F)F)C(=O)N4C3)nc(-c3ccc(OC(C)C)cn3)cc2c1 with HCV genotype 1b (Con1) replicon in HUH-7 cells and state it.
Ans. 1.01 to 5 nM

Qu. // repeat for C[C@@H]1CC/C=C\[C@@H]2C[C@@]2(C(=O)NS(=O)(=O)C2(C)CC2)NC(=O)[C@@H]2C[C@@H](Oc3nc4c(c5ccccc35)OCCC4)CN2C(=O)[C@@H](NC(=O)OC(C)(C)C(C)(F)F)[C@H](C)C1 and report
Ans. < 5.46 nM

Qu. // repeat for CC[C@@H]1C[C@H](C)CC/C=C\[C@@H]2C[C@@]2(C(=O)NS(=O)(=O)C2(C)CC2)NC(=O)[C@@H]2C[C@@H](Oc3nccc4cc(OC)ccc34)CN2C(=O)[C@H]1NC(=O)O[C@H](C)C(F)(F)F and report
Ans. < 5.46 nM

Qu. // repeat for COc1ccc2c(O[C@@H]3C[C@H]4C(=O)N[C@]5(C(=O)NS(=O)(=O)C6(C)CC6)C[C@H]5/C=C\CC[C@@H](C)C[C@@H](C)[C@H](NC(=O)OC(C)(C)C)C(=O)N4C3)nc(-c3ccc(OC(C)C)cc3)c(OC)c2c1 and report
Ans. < 5.46 nM

Qu. // repeat for COc1ccc2ncc(O[C@@H]3C[C@H]4C(=O)N[C@]5(C(=O)NS(=O)(=O)C6(C)CC6)C[C@H]5/C=C\CC[C@@H](C)C[C@@H](C)[C@H](NC(=O)OC(C)(C)C)C(=O)N4C3)nc2c1 and report
Ans. < 5.46 nM

Qu. // repeat for CC[C@@H]1C[C@H](C)CC/C=C\[C@@H]2C[C@@]2(C(=O)NS(=O)(=O)C2(C)CC2)NC(=O)[C@@H]2C[C@@H](Oc3nccc4c5c(ccc34)OCCO5)CN2C(=O)[C@H]1NC(=O)OC(C)(C)C(F)(F)F and report
Ans. < 5.46 nM

Qu. // repeat for [2H]C([2H])([2H])C(C)(OC(=O)N[C@@H]1C(=O)N2C[C@H](Oc3nccc4cc(OC(C)C)ccc34)C[C@H]2C(=O)N[C@]2(C(=O)NS(=O)(=O)C3CC3)C[C@H]2/C=C\CC[C@H](C)C[C@H]1C)C([2H])([2H])[2H] and report
Ans. 4.82 to 103 nM

---

Listing of recorded EC50 by entry.
Test system: HCV genotype 1b (Con1) replicon in HUH-7 cells
Assay: HCV replicon luciferase reporter assay, genotype 1b
Format: cell-based
Conditions: Hepatitis C virus, Huh-7, 72 h, HCV genotype 1b replicon luciferase, 3 days incubation, read-out: LE_1b (EC50, range)

Please review the entries below; each comes with its answer.
INSERT INTO results (molecule, assayed_system, reported) VALUES
  ('CCCOc1cnc(O[C@@H]2C[C@H]3C(=O)N[C@]4(C(=O)NS(=O)(=O)C5CC5)C[C@H]4/C=C\CC[C@@H](C)C[C@@H](C)[C@H](NC(=O)NC(C)(C)C(F)(F)F)C(=O)N3C2)c2ccccc12 [Compound 5099]', 'HCV genotype 1b (Con1) replicon in HUH-7 cells', '< 5.46 nM'),
  ('COc1ccc2c(O[C@@H]3C[C@H]4C(=O)N[C@]5(C(=O)NS(=O)(=O)C6CC6)C[C@H]5/C=C\CC[C@@H](C)C[C@@H](C)[C@H](NC(=O)NC(C)(C)C)C(=O)N4C3)nc(-c3ccc(OC(C)C)nc3)cc2c1 [Compound 5221]', 'HCV genotype 1b (Con1) replicon in HUH-7 cells', '< 5.46 nM');

Qu. Recall the recorded EC50 for CCCOc1ccc2c(O[C@@H]3C[C@H]4C(=O)N[C@]5(C(=O)NS(=O)(=O)C6CC6)C[C@H]5/C=C\CC[C@H](C)C[C@@H](C)[C@H](NC(=O)OC(C)(C)C)C(=O)N4C3)nccc2c1 [Compound 5168] with HCV genotype 1b (Con1) replicon in HUH-7 cells and state it.
Ans. < 5.46 nM

Qu. // repeat for COc1cc2ccccc2c(O[C@@H]2C[C@H]3C(=O)N[C@]4(C(=O)NS(=O)(=O)C5CC5)C[C@H]4/C=C\CC[C@@H](C)C[C@@H](C)[C@H](NC(=O)OC(C)(C)C)C(=O)N3C2)n1 [Compound 6011] and report
Ans. < 5.46 nM

Qu. // repeat for COc1ccc2c(O[C@@H]3C[C@H]4C(=O)N[C@]5(C(=O)NS(=O)(=O)C6(C)CC6)C[C@H]5/C=C\CC[C@H](C)C[C@@H](C)[C@H](NC(=O)OC(C)(C)C)C(=O)N4C3)nc(-c3ccc(OC(C)C)nc3)cc2c1 [Compound 5222] and report
Ans. < 5.46 nM

Qu. // repeat for CC[C@@H]1C[C@H](C)CC/C=C\[C@@H]2C[C@@]2(C(=O)NS(=O)(=O)C2CC2)NC(=O)[C@@H]2C[C@@H](Oc3nccc4cc(OC)ccc34)CN2C(=O)[C@H]1NC(=O)OC(C)(C)C(F)(F)F [Compound 4006] and report
Ans. < 5.46 nM

Qu. // repeat for COc1cnc(O[C@@H]2C[C@H]3C(=O)N[C@]4(C(=O)NS(=O)(=O)C5CC5)C[C@H]4/C=C\CC[C@@H](C)C[C@@H](C)[C@H](NC(=O)OC(C)(C)C)C(=O)N3C2)c2cc(Cl)ccc12 [Compound 1207] and report
Ans. 0.51 to 1 nM

Qu. // repeat for [2H]C([2H])([2H])Oc1cnc(O[C@@H]2C[C@H]3C(=O)N[C@]4(C(=O)NS(=O)(=O)C5(C)CC5)C[C@H]4/C=C\CC[C@H](C)C[C@@H](C)[C@H](NC(=O)OC(C([2H])([2H])[2H])(C([2H])([2H])[2H])C(F)(F)F)C(=O)N3C2)c2ccccc12 [Compound 5104] and report
Ans. < 5.46 nM

Qu. // repeat for CCOc1ccc2c(O[C@@H]3C[C@H]4C(=O)N[C@]5(C(=O)NS(=O)(=O)C6(CF)CC6)C[C@H]5/C=C\CC[C@@H](C)C[C@@H](C)[C@H](NC(=O)OC(C)(C)C)C(=O)N4C3)nccc2c1 [Compound 5367] and report
Ans. 0.1 to 0.5 nM

Values were extracted from patent US9499550B2.
